Tested on: M. tuberculosis clinical isolates, sensitive
Test: microbe, parasite or virus in culture
Type: cell-based, Mycobacterium tuberculosis
Settings: Table I; agar dilution
recorded_metric: MIC against Clinical isolates Sensitive

Example molecules with recorded MIC against Clinical isolates Sensitive:
[
  {
    "molecule": "O=C(CCC(=O)c1ccc(F)cc1F)NC[C@H]1CN(c2ccc(N3CCOCC3)c(F)c2)C(=O)O1 [Compound 18]",
    "MIC against Clinical isolates Sensitive": "1 to 4 µg/mL"
  },
  {
    "molecule": "CC(=O)Nc1ccc(C(=O)CCC(=O)NC[C@H]2CN(c3ccc(N4CCCCC4)c(F)c3)C(=O)O2)cc1 [Compound 54]",
    "MIC against Clinical isolates Sensitive": "8 to 16 µg/mL"
  },
  {
    "molecule": "O=C(CCC(=O)c1ccc(Cl)cc1)NC[C@H]1CN(c2ccc(N3CCOCC3)c(F)c2)C(=O)O1 [Compound 14]",
    "MIC against Clinical isolates Sensitive": "0.25 to 0.5 µg/mL"
  },
  {
    "molecule": "O=C(CCC(=O)c1ccccc1)NC[C@H]1CN(c2ccc(N3CCSCC3)c(F)c2)C(=O)O1 [Compound 8]",
    "MIC against Clinical isolates Sensitive": ".5 to 2 µg/mL"
  },
  {
    "molecule": "CC(C)Cc1ccc(C(=O)CCC(=O)NC[C@H]2CN(c3ccc(N4CCOCC4)c(F)c3)C(=O)O2)cc1 [Compound 17]",
    "MIC against Clinical isolates Sensitive": "1.0 µg/mL"
  },
  {
    "molecule": "COc1ccc(C(=O)CCC(=O)NC[C@H]2CN(c3ccc(N4CCCCC4)c(F)c3)C(=O)O2)cc1 [Compound 35]",
    "MIC against Clinical isolates Sensitive": "2 to 4 µg/mL"
  }
]

Exam item: Note MIC against Clinical isolates Sensitive for the molecule shown: O=C(C=CC(=O)c1ccccc1)NC[C@H]1CN(c2ccc(N3CCCCC3)c(F)c2)C(=O)O1 [Compound 55]
Marked response: >16 µg/mL

Exam item: Give reported MIC against Clinical isolates Sensitive value for Cc1ccc(C(=O)CCC(=O)NC[C@H]2CN(c3ccc(N4CCOCC4)c(F)c3)C(=O)O2)c(C)c1 [Compound 25]
Marked response: 4 to 16 µg/mL

Exam item: Read the entry CSc1ccc(C(=O)CCC(=O)NC[C@H]2CN(c3ccc(-n4cncn4)c(F)c3)C(=O)O2)cc1 [Compound 44] and write its reported MIC against Clinical isolates Sensitive.
Marked response: 0.5 to 2 µg/mL

Exam item: Provide one value: measured MIC against Clinical isolates Sensitive of CC(C)Cc1ccc(C(=O)CCC(=O)NC[C@H]2CN(c3ccc([N+]4([O-])CCOCC4)c(F)c3)C(=O)O2)cc1 [Compound 33]
Marked response: 1 µg/mL

----------
Tested on: M. tuberculosis clinical isolates, sensitive
Assay: microbe, parasite or virus in culture
Type: cell-based, Mycobacterium tuberculosis
Conditions: Table I; agar dilution
recorded_metric: MIC against Clinical isolates Sensitive (µg/mL)
Write the number in µg/mL without appending the unit.

[
  {
    "mol_smiles": "Cc1ccc(C(=O)CCC(=O)NC[C@H]2CN(c3ccc(N4CCOCC4)c(F)c3)C(=O)O2)cc1",
    "assayed_system": "M. tuberculosis clinical isolates, sensitive",
    "recorded_metric": "MIC against Clinical isolates Sensitive",
    "recorded_number": 8
  }
]

Shifting focus to the molecule that follows.
Exam item: # return recorded MIC against Clinical isolates Sensitive for entry O=C(CCC(=O)c1ccc2ccccc2c1)NC[C@H]1CN(c2ccc([N+]3([O-])CCOCC3)c(F)c2)C(=O)O1
Marked response: 0.5

----------
Tested on: M. tuberculosis 27294
Test: In vitro agar dilution assay (MIC), reference strain
Type: cell-based, Mycobacterium tuberculosis
Conditions: Mycobacterium tuberculosis, 27294, Middlebrook 7H10, read-out: MIC against M. tuberculosis 27294
recorded_metric: MIC (µg/mL)
Dear colleague, please return just the value in µg/mL, with no unit written.

Exam item: Indicate its recorded MIC; the compound in question is O=C(CCC(=O)c1ccc(F)cc1F)NC[C@H]1CN(c2ccc(-c3nc[nH]n3)c(F)c2)C(=O)O1 [Compound 51]
Marked response: 8

Exam item: Entry CC(=O)Nc1ccc(C(=O)CCC(=O)NC[C@H]2CN(c3ccc(-c4nc[nH]n4)c(F)c3)C(=O)O2)cc1 [Compound 50] needs its MIC filled in; supply it.
Marked response: 2

Exam item: Please give the documented MIC of CC(=O)NC[C@H]1CN(c2ccc(N3CCOCC3)c(F)c2)C(=O)O1 [Linezolid, reference compound]
Marked response: 0.5

Exam item: Provide measured MIC value, entry: O=C(CCC(=O)c1ccc2ccccc2c1)NC[C@H]1CN(c2ccc(-c3nc[nH]n3)c(F)c2)C(=O)O1 [Compound 48]
Marked response: 2

Exam item: Provide measured MIC value, entry: Cc1ccc(C(=O)CCC(=O)NC[C@H]2CN(c3ccc(-c4nc[nH]n4)c(F)c3)C(=O)O2)c(C)c1 [Compound 43]
Marked response: 1

----------
Attribute: MIC against Clinical isolates Sensitive
System: M. tuberculosis clinical isolates, sensitive
Assay: microbe, parasite or virus in culture
Type: cell-based, Mycobacterium tuberculosis
Conditions: Table I; agar dilution

[
  {
    "mol_smiles": "O=C(CCC(=O)c1ccc(Cl)cc1)NC[C@H]1CN(c2ccc(N3CCCCC3)c(F)c2)C(=O)O1",
    "recorded_metric": "MIC against Clinical isolates Sensitive",
    "result": "4 to 8 µg/mL"
  }
]

Switching to the query record.
Exam item: Recall the reported MIC against Clinical isolates Sensitive of O=C(CCC(=O)c1ccc(Cl)cc1)NC[C@H]1CN(c2ccc(-n3nnc4ccccc43)c(F)c2)C(=O)O1 when tested on M. tuberculosis clinical isolates, sensitive.
Marked response: 2 to 4 µg/mL

----------
Test system: M. tuberculosis 27294
Assay: In vitro agar dilution assay (MIC), reference strain
Assay type: cell-based, Mycobacterium tuberculosis
Conditions: Mycobacterium tuberculosis, 27294, Middlebrook 7H10, read-out: MIC against M. tuberculosis 27294
Measured MIC, listed per entry for reference.
Expressed in µg/mL, but write only the number.

[
  {
    "molecule": "NNC(=O)c1ccncc1 [Isoniazid, reference compound]",
    "assayed_system": "M. tuberculosis 27294",
    "recorded_metric": "MIC",
    "recorded_number": 0.25
  },
  {
    "molecule": "O=C(CCC(=O)c1cccs1)NC[C@H]1CN(c2ccc(-c3nc[nH]n3)c(F)c2)C(=O)O1",
    "assayed_system": "M. tuberculosis 27294",
    "recorded_metric": "MIC",
    "recorded_number": 1
  },
  {
    "molecule": "O=C(CCC(=O)c1ccc(Cl)cc1)NC[C@H]1CN(c2ccc(-c3nc[nH]n3)c(F)c2)C(=O)O1",
    "assayed_system": "M. tuberculosis 27294",
    "recorded_metric": "MIC",
    "recorded_number": 4
  }
]

Next molecule, please.
Exam item: Give the observed MIC of CCCc1ccc(C(=O)CCC(=O)NC[C@H]2CN(c3ccc(-c4nc[nH]n4)c(F)c3)C(=O)O2)c(C)c1 for M. tuberculosis 27294.
Marked response: 2

----------
System: M. tuberculosis clinical isolates, sensitive
Experiment: microbe, parasite or virus in culture
Type: cell-based, Mycobacterium tuberculosis
Settings: Table I; agar dilution
Listed next: entries and their corresponding MIC against Clinical isolates Sensitive.

Examples from the recorded data:
[
  {
    "mol_smiles": "O=C(CCC(=O)c1ccccc1)NC[C@H]1CN(c2ccc(N3CCOCC3)c(F)c2)C(=O)O1",
    "assayed_system": "M. tuberculosis clinical isolates, sensitive",
    "MIC against Clinical isolates Sensitive": "4 to 16 µg/mL"
  },
  {
    "mol_smiles": "Cc1ccc(C(=O)CCC(=O)NC[C@H]2CN(c3ccc(-n4nnc5ccccc54)c(F)c3)C(=O)O2)c(C)c1",
    "assayed_system": "M. tuberculosis clinical isolates, sensitive",
    "MIC against Clinical isolates Sensitive": ">16 µg/mL"
  },
  {
    "mol_smiles": "O=C(CCC(=O)c1cccs1)NC[C@H]1CN(c2ccc([N+]3([O-])CCOCC3)c(F)c2)C(=O)O1",
    "assayed_system": "M. tuberculosis clinical isolates, sensitive",
    "MIC against Clinical isolates Sensitive": "1 to 2 µg/mL"
  },
  {
    "mol_smiles": "CSc1ccc(C(=O)CCC(=O)NC[C@H]2CN(c3ccc(N4CCOCC4)c(F)c3)C(=O)O2)cc1",
    "assayed_system": "M. tuberculosis clinical isolates, sensitive",
    "MIC against Clinical isolates Sensitive": "0.5 to 2 µg/mL"
  }
]

Exam item: Read off the recorded MIC against Clinical isolates Sensitive for Cc1ccc(C(=S)CCC(=O)NC[C@H]2CN(c3ccc(N4CCOCC4)c(F)c3)C(=O)O2)cc1
Marked response: >16 µg/mL

----------
Below, each of the compounds is paired with its reported MIC against Clinical isolates Sensitive value.
Tested on: M. tuberculosis clinical isolates, sensitive
Assay: microbe, parasite or virus in culture
Assay type: cell-based, Mycobacterium tuberculosis
Conditions: Table I; agar dilution
Just the number please, in µg/mL, no unit attached.

# annotated cases, reported MIC against Clinical isolates Sensitive shown
[
  {
    "compound": "COc1ccc(C(=O)CCC(=O)NC[C@H]2CN(c3ccc(N4CCOCC4)c(F)c3)C(=O)O2)cc1 [Compound 13]",
    "measurement_units": "µg/mL",
    "recorded_number": 2
  },
  {
    "compound": "O=C(CCC(=O)c1cccs1)NC[C@H]1CN(c2ccc(N3CCCCC3)c(F)c2)C(=O)O1 [Compound 52]",
    "measurement_units": "µg/mL",
    "recorded_number": 2
  }
]

# input for lookup
Exam item: Return reported MIC against Clinical isolates Sensitive. Input compound: O=C(CCC(=O)c1ccc2ccccc2c1)NC[C@H]1CN(c2ccc(N3CCOCC3)c(F)c2)C(=O)O1 [Compound 16]
Marked response: 0.5
